src = patent US7514534

study.system: T1, MMP-26 (human)
T1 sequence: ASDF
assay: cell-based or functional assay
Here, each record is paired with measured % Inhibition of JEG-3 cell invasion, 25 µg/ml (first test) data.
Supply the numeric figure in %, leaving out any unit text.

Known results for binders:
{"binder": "C01 (antibody, human IgG4, V domains shown) VH: EVQLLESGGGLVQPGGSLRLSCAASGFTFSNYGMSWVRQAPGKGLEWVSVIGPSGGITMYADSVKGRFTISRDNSKNTLYLQMNSLRAEDTAVYYCATGSSSGWYPNFDYWGQGTLVTVSS VL: DIQMTQSPSTLSASVGDRVTITCRASQSIGNWLAWYQQKPGEAPHLLIYQASSLEGGVPSRFSGSGSGTKFTLNISSLQPDDFATYYCQQYNSYSYTFGQGTKLDIKR", "observed.measurement": 34}
{"binder": "C08 (antibody, human IgG4, V domains shown) VH: EVQLLESGGGLVQPGGSLRLSCAASGFTFSYYEMMWVRQAPGKGLEWVSSISPSGGPTMYADSVKGRFTISRDNSKNTLYLQMNSLRAEDTGVYYCARKMGRVGYCSSTSCYRDDYYGMDVWGQGTTVTVSS VL: DIQMTQSPPSLSALVGDRVTITCRASQSISRYVNWYQQKPGKAPKVLIYAASIVENGVPSRFSGSGSGTDFSLTISSLQPEDFATYYCQQTYSTPLTFGGGTKLAIKR", "observed.measurement": 49}

Now look at this one.
What does the data say about its % Inhibition of JEG-3 cell invasion, 25 µg/ml (first test)? Entry: B04 (antibody, human IgG4, V domains shown) VH: EVQLLESGGGLVQPGGSLRLSCAASGFTFSFYWMMWVRQAPGKGLEWVSGISSSGGFTKYADSVKGRFTISRDNSKNTLYLQMNSLRAEDTAVYYCARETSRRAFDIWGQGTMVTVSS VL: DIQMTQSPSSVSASVGDRVTITCRASQGISKSLAWYQQKPGKAPKLLVYGAFSLESGVPSRFSGTGAGTDFILTISRLQPEDFATYYCQQANSFPLTFGGGTKVEIKR
14
